Provenance of the data: the supplement of paper PMC7125110

B1: glmS ribozyme (parent)
chain: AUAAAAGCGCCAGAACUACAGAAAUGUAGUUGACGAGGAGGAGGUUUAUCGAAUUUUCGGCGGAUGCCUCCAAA

variants of: B1; experiment: self-cleavage kobs at 2500 uM GlcN6P; higher = faster cleavage; RNA array; conditions: with glucosamine-6-phosphate
Variants at the floor of the assay were thinned out.
Parameter threshold = 0.0003 s⁻¹. Response is Fulfilled when self-cleavage kobs at 2500 uM GlcN6P meets or exceeds it, else Not fulfilled.

>>> qualitative_label("AUAAAAGCGUCAGAACUACAGAAAUGUAGUUGACGAGGAGGAGGUUUAUCGAAUUUUCGGCGGAUGCCUUCAAA [C10U C70U]")
"Not fulfilled"
>>> qualitative_label("AUAAAAGCGCCAGAACUACAGAAAUGUAGUUGACGAGGAGGAGGUUUAUCGAAUUUUACGCGGAUGCCUCUAAA [C58A G59C C71U]")
"Not fulfilled"
>>> qualitative_label("AUAAAAGCGCCAGGACUACAGAAAUGUAGUUGACGAGGAGGAGGUUUAUCGAAUUUUCGGCGGACGCCUCCAAA [A14G U65C]")
"Fulfilled"
>>> qualitative_label("AUAAAAGCGCCAGAACUACAGAAAUGUAGUUGAUGAGGAGGAGGUUUAUAGAAUUUUGGGCCGAUGCCUCCAAA [C34U C50A C58G G62C]")
"Not fulfilled"
>>> qualitative_label("AUAAAAGCGCCAGAACUACAGAAAUGUAGAUGACGAGGAGGAGGUUUAUCGAAUUUUCGGCGGAUGCCUCCAAA [U30A]")
"Fulfilled"
>>> qualitative_label("AUAAAAGCGCCAGAAGUACAGAAAUGUAGUUGACGAGGAGGAGGAUUAUCGAAUUUUCGGCGGAUGCCUCCAAA [C16G U45A]")
"Fulfilled"
>>> qualitative_label("AUAAAAGCGCCAGAACUACAGAAAUGUAAUUGACGAGGAGGACGUUUAUCGAAUUUUCGCCGGAUGCCUCCAAA [G29A G43C G60C]")
"Not fulfilled"
>>> qualitative_label("AUAAAAGUGCCAGAACUACAGAAAUGUAGUUGGCGAUGAGGACGUUUAUCGAAAUCUCGGCGGAUGUCUCCAAA [C8U A33G G37U G43C U54A U56C C67U]")
"Not fulfilled"
>>> qualitative_label("AUAAAAGCGCCAGAACUACAGAAAUGUAGUUGACGAGGCGGAGGUUUAUCGAAUUUUCAGCGUAUGCCUCCAAA [A39C G59A G63U]")
"Not fulfilled"
>>> qualitative_label("AUAAAAGCGCCAGCACUACAGAAAUGUAGUUGACGAGGAGGAGGUGUAUCGAAUUUUCGGCGGAUGCCUCCAAA [A14C U46G]")
"Fulfilled"
>>> qualitative_label("AUAAAAGCGCCAGAACUACAGAAAUGUAGUUGACGAGGAGGAGGUUUAUCGAAUUUACGACGGAUGGCUCCAAA [U57A G60A C67G]")
"Not fulfilled"
>>> qualitative_label("AUAAAAGCGCCAGAACUACAGAAAUGUAGUUCACGAGGAGGAGGGUUAUCGAAUUUUCGACGGAUGCGUCCAAA [G32C U45G G60A C68G]")
"Not fulfilled"
>>> qualitative_label("AUAAAAGCGCCAGACCUACAGAAAUGUAGGUGACGAGGAGGAGGUUUAUCGAAUUUUCGGCGGAUGCCUCCAAA [A15C U30G]")
"Fulfilled"
>>> qualitative_label("AUAAAAGCGCCAGUAGUACAGAAAUGUAGUUGACUUGUAGGAGGUUUAUCGAAUUCGCGUCGGAUGCCUCCAAA [A14U C16G G35U A36U G38U U56C U57G G60U]")
"Not fulfilled"
>>> qualitative_label("AUAAAAGCGCCAGAACUACAGAAAUGUAGUUGACGAGGAGGAAGUUUAUCGAAUUUUCCGCGGAUGCGUCCAAA [G43A G59C C68G]")
"Not fulfilled"
>>> qualitative_label("AUAAAAGCGCCAGAUCUACAGAAAUGUAGUUGACGAGGAGGAGGUUUAUCGAAUUUUCCGCGGAUGCCUCCAAA [A15U G59C]")
"Not fulfilled"
>>> qualitative_label("AUAAAAGCGCCGGAACUACAGAAAUGUAGUUGACGAGGCGGUGGUUUAUCGAAUUUUCGGCGGAUGCCUCCAAA [A12G A39C A42U]")
"Not fulfilled"
>>> qualitative_label("AUAAAAGCGCCGGAGCUACAGAAAUGUAGUUGACGAGGAGGAGGUUUAUCGAAUUUUCGGCGGAUGCCUACAAA [A12G A15G C70A]")
"Not fulfilled"
>>> qualitative_label("AUAAAAGUGCCAGAACUACAGAAAUGUAGUUGACGAGGAGGAGGUUUAUCGAAUUUUUGGCGGAUGCAUCCAAA [C8U C58U C68A]")
"Not fulfilled"
>>> qualitative_label("AUAAAAGCGCCAGAACUACAGAAAUGUAGUAGACGAGGAGGAGGUUUAUCGAAUUAUCGGCGGAUGCCUCCAAA [U31A U56A]")
"Fulfilled"
>>> qualitative_label("AUAAAAGCGCCAGAACUACAGAAAUGUAGUUUACGAGGAGGAGGUUUAUCGAAUUUUCGGCAGAUGCCUCCAAA [G32U G62A]")
"Not fulfilled"
